- TEST: Quantitative High-Throughput drug screen in 47 multiple myeloma cell lines against the NCATS MIPE library collection: OPM1_PLB cell viability assay (AID 1918989); further: nearly all actives have a fitted effect of over 40% in size
- CONDITION_DETAILS: CellTiter-Glo, 48 h; series mostly up to 45.8 µM
Results filed as inconclusive are left out. Calls of active or inactive are those of the source. The call rests on the fitted dose curve; in most records, active means well fitted cell-killing curve with a large enough effect; inconclusive means small, poorly fitted or top-dose-only effect, or effect the other way; inactive means no such curve, though single readings can be large or run the other way.
Classes used: active, inactive

| MOLECULE | GROUP |
| --- | --- |
| C[C@H]1C[C@@H]2[C@@H]([C@@H](O)C[C@@]3(C)[C@H]2CC[C@]3(O)C(=O)CO)[C@@]2(C)C=CC(=O)C=C12 | inactive |
| CN1CCN(Cc2ccc(NC(=O)Nc3ccc(Oc4cc(NC(=O)C5CC5)ncn4)cc3)cc2C(F)(F)F)CC1 | active |
| COc1cc(C)c(Sc2cnc(NC(=O)c3ccc(CNC(C)C(C)C)cc3)s2)cc1C(=O)N1CCN(C(C)=O)CC1 (configuration not stated) | active |
| CC(=O)Nc1nc(C)c(-c2ccc(Cl)c(S(=O)(=O)NCCO)c2)s1 | active |
| Cc1ccc2nc(NC(=O)CSc3nc4c(c(=O)n3-c3ccccc3)SCC4)sc2c1 | active |
| Nc1nc(NCCNc2ncc(-n3ccnc3)c(-c3ccc(Cl)cc3Cl)n2)ccc1[N+](=O)[O-] | active |
| Cc1cc(Nc2cc(N3CCN(C)CC3)nc(Sc3ccc(NC(=O)C4CC4)cc3)n2)n[nH]1 | active |
| COc1cccc(Nc2c(C(N)=O)cnc3c(C)cc(S(=O)(=O)c4cccc(C(=O)N(C)C)c4)cc23)c1 | inactive |
| O=C(O)CCCc1c[nH]c2ccccc12 | inactive |
| CNC(=O)c1ccccc1Nc1nc(Nc2ccc(N3CCOCC3)cc2OC)ncc1Cl | active |
| COC(=O)[C@]12CCC(C)(C)C[C@@H]1[C@@H]1C(=O)C=C3[C@@]4(C)C=C(C#N)C(=O)C(C)(C)[C@@H]4CC[C@@]3(C)[C@]1(C)CC2 | active |
| Nc1cc(C(F)(F)F)c(-c2cc(N3CCOCC3)nc(N3CCOCC3)n2)cn1 | active |
| O=C(c1ccc(Nc2nccc(-c3cc4ccccc4s3)n2)cc1)N1CCC(N2CCCC2)CC1 | active |
| C=C1C(=CC=C2CCC[C@]3(C)[C@@H]([C@H](C)C=C[C@H](C)C(C)C)CC[C@@H]23)C[C@@H](O)C[C@@H]1O | active |
| COc1c(N2C[C@@H]3CCCN[C@H]3C2)c(F)cc2c(=O)c(C(=O)O)cn(C3CC3)c12 | inactive |
| COc1cccc(-c2ccc(NC(=O)C3=C(C(=O)O)CCC3)c(F)c2)c1 | active |
| CC[C@@H]1C(=O)N(C)c2cnc(Nc3ccc(C(=O)NC4CCC(N5CCN(CC6CC6)CC5)CC4)cc3OC)nc2N1C(C)C (some centres not stated) | active |
